ED50 values, listed per item
targetUnderTest: β-receptors of the heart (Felis catus)
Construct: Intravenously injected isoprenaline increased the heart rate and reduced the perfusion pressure; from tissue; host or cells: heart of the anaesthetized, reserpinized, vagotomized cat (in vivo)
Sequence (Q9TST6 whole entry, the tested form may be a part): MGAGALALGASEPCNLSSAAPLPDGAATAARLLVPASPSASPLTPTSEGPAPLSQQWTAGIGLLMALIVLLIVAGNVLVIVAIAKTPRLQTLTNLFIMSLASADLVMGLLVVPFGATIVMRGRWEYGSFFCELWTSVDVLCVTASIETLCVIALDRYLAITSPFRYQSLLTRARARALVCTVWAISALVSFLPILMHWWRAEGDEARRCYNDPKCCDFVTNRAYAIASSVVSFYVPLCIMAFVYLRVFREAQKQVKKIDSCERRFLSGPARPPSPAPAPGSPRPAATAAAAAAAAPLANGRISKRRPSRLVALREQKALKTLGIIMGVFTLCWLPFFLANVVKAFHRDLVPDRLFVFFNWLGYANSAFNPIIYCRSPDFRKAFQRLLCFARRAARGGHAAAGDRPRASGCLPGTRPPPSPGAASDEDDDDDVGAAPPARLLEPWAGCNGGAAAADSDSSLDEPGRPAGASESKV
assayInfo: Intrinsic activity and β-blockade of heart rate response to isoprenaline in the reserpinized cat
Assay type: in vivo
particulars: reserpinized cat, intravenous, 50% blockade of isoprenaline response (usually 0.1 μg/kg); read-out: β-blockade Heart rate ED50

Below, each entry is followed by its recorded ED50 result.
CC(C)NCC(O)COc1ccc(CCNC(N)=O)cc1 (centres unmarked) [H2 NCONHC2 H4, H] :: 0.4 mg/kg
CC(C)NCC(O)COc1ccc(CCNC(N)=O)cc1Cl (centres unmarked) [H2 NCONHC2 H4, Cl] :: 0.4 mg/kg
CNC(=O)OCCc1ccc(OCC(O)CNC(C)C)c(Cl)c1 (centres unmarked) [CH3 NHCOOC2 H4, Cl] :: 0.3 mg/kg

Problem: Missing value: ED50, β-receptors of the heart (Felis catus), entry CC(C)NCC(O)COc1ccc(OCCOC(=O)N(C)C)cc1Cl (centres unmarked) [(CH3)2 NCOOC2 H4 O, Cl] . Fill in?
Solution: 0.1 mg/kg

Problem: For CNC(=O)OCCOc1ccc(OCC(O)CNC(C)C)cc1 (centres unmarked) [CH3 NHCOOC2 H4 O, H] then?
Solution: 0.5 mg/kg

From: patent US4078146A
